- run.description: Toxicology (MTD, LD50) in mice
- Type: in vivo, mouse
- measurement.context: mouse, in vivo; CD-1 or CB6F1 mice
- Description: The MTD establishes the parameters to establish in vivo dosages initiated for studying the Graft-v-Host reaction and skin grafting. The Swiss conventional mouse (Charles River CD-1) is used in a weight range from 18-30 g. A saline solution containing 5% non-denatured EtOH and a drop of Tween-80 detergent is used a vehicle for dilution. Stirring and sonication are utilized to effect solution or suspension of the composition. The composition is injected within one hour of preparation. […]
readout.kind: LD50 at 7 days (mg/kg)
Kindly provide the numeric value in mg/kg only, without the unit symbol.

Supply recorded LD50 at 7 days for C=C1COC(O)(C2OCOC(C3CC(=O)NC(=O)C3)C2O)C1C (stereo not shown) [Sesbanimide, sesbanimide] here.
0.805
